# measurement setup: in ethanol, 293.75 K
measured parameter: solubility (mole fraction)

Challenge: Query (compound): CCCCCCCCCCCCCCCCCCC ; field requested: solubility (mole fraction)
Response given: 0.0041

* * *

# measurement setup: in n-heptane, 302.3 K
measured parameter: solubility (mole fraction)

Challenge: Query (compound): CCCCCCCCCCCCCCCCCCC ; field requested: solubility (mole fraction)
Response given: 0.786

* * *

# measurement setup: in n-heptane, 276.9 K
measured parameter: solubility (mole fraction)
Just the number, please, no unit attached.

Challenge: Query (compound): CCCCCCCCCCCCCCCCCC ; field requested: solubility (mole fraction)
Response given: 0.124

* * *

# measurement setup: in ethanol, 282.7 K
measured parameter: solubility (mole fraction)
Just the number, please, no unit attached.

Challenge: Query (compound): CCCCCCCCCCCCCCCCCCC ; field requested: solubility (mole fraction)
Response given: 0.0011
